Entries and their MIC
- Test system: Escherichia coli
- test.description: Antibacterial activity against Escherichia coli after 24 hrs by liquid growth inhibition assay
- Type: functional
property.measured: MIC (µM)

{"columns": ["substance.smiles", "reported"],
 "data": [
  ["N=C1C2=C(NCCC2=O)c2nccc3c2c1nc1ccccc13", 1.2],
  ["N=C1C2=C(NCCC2=O)c2nccc3c2c1nc1ccc(O)cc13", 2.6],
  ["NCCc1c2c(c3nccc4c3c1Nc1ccccc1-4)NC(=O)CS2", 1.1],
  ["NCCc1c2c3c(ccnc3c3ncsc13)-c1ccccc1N2", 2.5],
  ["O=C1c2cccnc2-c2nccc3c2c1nc1ccccc13", 0.2],
  ["CC(=O)NCCc1c2c(c3nccc4c3c1Nc1ccccc1-4)NC(=O)CS2", 2],
  ["CC(=O)NCCc1c2c3c(ccnc3c3ncsc13)-c1ccccc1N2", 2.2],
  ["O=C1c2c(O)ccnc2-c2nccc3c2c1nc1ccccc13", 2.6]
]}
